Test system: B6C3F1 mice, Lewis lung carcinoma iv, survival T/C
Assay Notes: NCI In Vivo Anticancer Drug Screen. Data for tumor model Lewis Lung Carcinoma (intravenous) in B6C3F1 mice
Assay Setup: endpoint: median survival time; dose: 50.0 mg/kg/injection; schedule: Q01DX009 (ip); vehicle: saline
Inconclusive results and toxic doses are left out. How the source made its calls: active means survival T/C of 150% or more; inactive means T/C below 125% in these data.
Pick one: true (1) = active, false (0) = inactive

Record excerpt, results attached:
>>> class_name("COC(=O)c1ccoc1")
"false (0)"
>>> class_name("C=CCOCC1CO1 (stereo not drawn)")
"false (0)"
>>> class_name("C[Si](C)(C)O/C=C1/CCOC1=O")
"false (0)"
>>> class_name("CC(=O)N(C)c1ccc(Nc2cc(C)[nH]c3ccc4ncnc4c23)cc1")
"false (0)"
>>> class_name("O=C(O)C(O)C(O)C1[O][Sb][O]C1C(=O)O (stereo not drawn)")
"false (0)"

*Q* What call does the record list for c1cc[c]([Sn]([NH]c2ncnc3[nH]cnc23)([NH]c2ncnc3[nH]cnc23)[c]2ccccc2)cc1 ?
*A* false (0)

*Q* What call does the record list for O=C1N(CC2CO2)CCN1CC1CO1 (stereo not drawn) ?
*A* false (0)

*Q* What call does the record list for c1cc2n(n1)CCN2 ?
*A* false (0)

*Q* What call does the record list for Nc1ccn(C2OC(CO)C(O)C2O)c(=O)n1 (stereo not drawn) ?
*A* true (1)

*Q* What call does the record list for O=N[O-].O=N[O-].O=N[O-].[Co+3].[NH-]CC[N-]CC[NH-] ?
*A* false (0)

*Q* What call does the record list for CC1=NN(c2cccc(S(=O)(=O)O)c2)C(=O)C1N=Nc1cc(Cl)cc(S(=O)(=O)O)c1O.CC1=NN(c2cccc(S(=O)(=O)O)c2)C(=O)C1N=Nc1cc(Cl)cc(S(=O)(=O)O)c1O.[Cr] (stereo not drawn) ?
*A* false (0)

*Q* What call does the record list for Nc1ncn(C2OC(CO)C(O)C2O)c(=O)n1 (stereo not drawn) ?
*A* false (0)

*Q* What call does the record list for NC(Cn1ccc(=O)c(O)c1)C(=O)O (stereo not drawn) ?
*A* false (0)

*Q* What call does the record list for C=C(C(=O)O)C(N)C(=O)O (stereo not drawn) ?
*A* false (0)

*Q* What call does the record list for O=[N+]([O-])c1nccn1CC(O)CO (stereo not drawn) ?
*A* false (0)

*Q* What call does the record list for COC(OC(CO)C(O)S(=O)(=O)O)C(O)S(=O)(=O)O (stereo not drawn) ?
*A* false (0)

*Q* What call does the record list for Cc1ccccc1CN1C2=NCCN2C(=O)C2=C1CCN(S(=O)(=O)c1ccc(Cl)c(S(N)(=O)=O)c1)C2 ?
*A* false (0)

*Q* What call does the record list for N#C[C@H](OC1OC(COC2OC(CO)C(O)C(O)C2O)C(O)C(O)C1O)c1ccccc1 (stereo partly drawn) ?
*A* false (0)

*Q* What call does the record list for CCCCn1cnc2c(=S)nc[nH]c21 ?
*A* false (0)

*Q* What call does the record list for CC1CN1P1(N2CC2C)=NP(N2CC2C)(N2CC2C)=NP(N2CC2C)(N2CC2C)=N1 (stereo not drawn) ?
*A* false (0)

*Q* What call does the record list for NC(CCC(=O)NC(CS)C(=O)NCC(=O)O)C(=O)O (stereo not drawn) ?
*A* false (0)

*Q* What call does the record list for COc1cc2cc3cc4cc(OC)c(OC)cc4c(C)[n+]3cc2cc1OC (tested in a mixture with another compound) ?
*A* false (0)

*Q* What call does the record list for CC1(C)OCC2OC=CC(=O)C2O1 (stereo not drawn) ?
*A* false (0)

*Q* What call does the record list for CCOC(=O)C(N)CSC(=O)NC (stereo not drawn) ?
*A* false (0)

*Q* What call does the record list for Cn1cnc([N+](=O)[O-])c1Sc1ncn[nH]1 ?
*A* false (0)

*Q* What call does the record list for CCn1cnc2c(=S)nc[nH]c21 ?
*A* false (0)

*Q* What call does the record list for CCC(C(=O)O)C(=O)O.[NH-]CC1CCCC[N-]1.[Pt+2] ?
*A* false (0)

*Q* What call does the record list for COC(=O)C(N)Cc1ccc(O)c(O)c1 (stereo not drawn) ?
*A* false (0)

*Q* What call does the record list for O=C(/C=C(\Cl)C(=O)NO)NO ?
*A* false (0)

*Q* What call does the record list for CC[As](=O)(O)CC ?
*A* false (0)

*Q* What call does the record list for C=CCc1cn(C2CC(O)C(CO)O2)c(=O)[nH]c1=O (stereo not drawn) ?
*A* false (0)

###

Test system: B6C3F1 mice, Lewis lung carcinoma iv, survival T/C
Assay Notes: NCI In Vivo Anticancer Drug Screen. Data for tumor model Lewis Lung Carcinoma (intravenous) in B6C3F1 mice
Assay Setup: endpoint: median survival time; dose: 100.0 mg/kg/injection; schedule: Q01DX009 (ip); vehicle: saline with Tween-80
Toxic doses and inconclusive results are not listed. The calls were made as follows: active = survival T/C of 150% or more; inactive = T/C below 125% in these data.
Pick one: active, inactive

Record excerpt, results attached:
>>> class_name("CC1(C)CC2(C)OC2C2(C1)N=NC(=Nc1ccccc1)O2 (stereo not drawn)")
"inactive"
>>> class_name("C[C@]12CC[C@H](O)CC1=CC[C@@H]1[C@@H]2CC[C@]2(C)C(=O)CC[C@@H]12")
"inactive"
>>> class_name("CC(=O)OCC1(C)NC(=O)c2ccccc2O1 (stereo not drawn)")
"inactive"
>>> class_name("CCC(=O)Sc1ccccc1C(=O)Nc1ccc(Cl)cc1")
"inactive"

*Q* What call does the record list for CCCCc1ccc2nc(NC(=O)OC)[nH]c2c1 ?
*A* inactive

*Q* What call does the record list for CN(C)P(=O)(Oc1ccccc1)N(C)C ?
*A* inactive

*Q* What call does the record list for C/C=C/C=C1/OC(C)=C(C(C)=O)C1=O ?
*A* inactive

*Q* What call does the record list for c1nc(N2CC2)c2cnn(C3CCCCO3)c2n1 (stereo not drawn) ?
*A* inactive

*Q* What call does the record list for Nc1nc2ccc(NCc3ccc(C(=O)NC(CCC(=O)O)C(=O)O)cc3)cc2c(=O)[nH]1 (stereo not drawn) ?
*A* inactive

*Q* What call does the record list for CC(=O)Oc1[nH]c(=O)c2cccc3c2c1CCC3 ?
*A* inactive

*Q* What call does the record list for O=Cc1c(O)c2ccccc2[nH]c1=O ?
*A* inactive

*Q* What call does the record list for COc1cccc(C2NC(=O)c3c(n[nH]c3N)S2)c1O (stereo not drawn) ?
*A* inactive

*Q* What call does the record list for CC1(C)CC1(Br)Br ?
*A* inactive

*Q* What call does the record list for COC1/C=C/O[C@@]2(C)Oc3c(C)c(O)c4c(O)c(cc(O)c4c3C2=O)NC(=O)/C(C)=C\C=C\[C@H](C)C(O)[C@@H](C)[C@@H](O)[C@@H](C)[C@H](OC(C)=O)[C@@H]1C (stereo partly drawn) ?
*A* inactive

*Q* What call does the record list for NC(C(=O)O)c1ccc(CBr)cc1 (stereo not drawn) ?
*A* inactive

###

Tested on: B6C3F1 mice, Lewis lung carcinoma iv, survival T/C
Assay Notes: NCI In Vivo Anticancer Drug Screen. Data for tumor model Lewis Lung Carcinoma (intravenous) in B6C3F1 mice
Assay Setup: endpoint: median survival time; dose: 3.12 mg/kg/injection; schedule: Q01DX009 (ip); vehicle: Klucel (hydroxypropylcellulose) (HPC); higher = longer survival
Inconclusive results and toxic doses are left out.
Measure: T/C

Worked cases, T/C given:
>>> result("CCCCCC[Se][Se]CCCCCC")
"105 % of control"
>>> result("CCCCCC[C@H]([C@H](C)O)n1cnc2c(N)ncnc21")
"88 % of control"
>>> result("COC12C(COC(=O)NCCO)C3=C(C(=O)C(C)=C(N)C3=O)N1CC1NC12 (stereo unspecified)")
"111 % of control"
>>> result("O=NN(CCCl)C(=O)Oc1ccc(OC(=O)N(CCCl)N=O)cc1")
"97 % of control"
>>> result("N#C[Se-].c1ccc([Te+](c2ccccc2)c2ccccc2)cc1")
"97 % of control"

*Q* State the recorded T/C for this entry: COc1c(C=O)c2c(c(OC)c1OC)-c1ccc(OC)c(=O)cc1[C@@H](NC(C)=O)CC2
*A* 98 % of control

###

Quick reference: T/C of the listed items.
Tested on: B6C3F1 mice, Lewis lung carcinoma iv, survival T/C
Assay Notes: NCI In Vivo Anticancer Drug Screen. Data for tumor model Lewis Lung Carcinoma (intravenous) in B6C3F1 mice
Assay Setup: endpoint: median survival time; dose: 400.0 mg/kg/injection; schedule: Q01DX009 (ip); vehicle: saline; higher = longer survival
Inconclusive results and toxic doses are left out.

Worked cases, T/C given:
>>> result("O=C(NO)c1ccc(O)c(O)c1")
"158 % of control"
>>> result("CC1(C)OCC2OC=CC(=O)C2O1 (stereo not given)")
"104 % of control"
>>> result("CC(=O)Oc1c(C)[nH]ccc1=O")
"114 % of control"

*Q* Quick check: T/C on B6C3F1 mice, Lewis lung carcinoma iv, survival T/C, item NC(CCC(=O)NC(CS)C(=O)NCC(=O)O)C(=O)O (stereo not given) ?
*A* 103 % of control

*Q* Quick check: T/C on B6C3F1 mice, Lewis lung carcinoma iv, survival T/C, item OCCCN1CCCCC1CO (stereo not given) ?
*A* 96 % of control

*Q* Quick check: T/C on B6C3F1 mice, Lewis lung carcinoma iv, survival T/C, item C[Si](C)(C)O/C=C1/CCOC1=O ?
*A* 94 % of control

*Q* Quick check: T/C on B6C3F1 mice, Lewis lung carcinoma iv, survival T/C, item O=C(O)C1CC(O)CN1 (stereo not given) ?
*A* 114 % of control
